EXPERIMENTAL DETAILS: Stability of cannabinoid and Vitamin E components of Beverage 1 (AB White) stored at 8° C. and 21-25° C., LCMSMS over 570 days
Assay type: physicochemical
REPORTED CONDITIONS: beverage stored at 21-25° C., day 90
Classification field: YES = Stability in AB White, 21-25° C. (content by LCMSMS) at or over 0.9 µg/mL; NO = Stability in AB White, 21-25° C. (content by LCMSMS) under 0.9 µg/mL.

Solved cases (3 shown):
{"COMPOUND": "CCCCCc1cc(O)c2c(c1)OC1(C)CCC3C1C2C3(C)C (stereo not drawn)", "ASSIGNED CATEGORY": "NO"}
{"COMPOUND": "CCCCCc1cc(O)c2c(c1)OC(C)(C)[C@@H]1CCC(C)=C[C@@H]21 [D9 THC, delta-9-tetrahydrocannabinol, reference compound]", "ASSIGNED CATEGORY": "YES"}
{"COMPOUND": "CCCCCc1cc(O)c2c(c1)OC(C)(CCC=C(C)C)C=C2 (stereo not drawn)", "ASSIGNED CATEGORY": "NO"}

Continue with the compound presented below.
Enquiry: Please tell me: is the compound C=C(C)[C@@H]1CCC(C)=C[C@H]1c1c(O)cc(CCC)cc1O at or over 0.9 µg/mL in terms of Stability in AB White, 21-25° C. (content by LCMSMS)?
Return: NO

----------
EXPERIMENTAL DETAILS: Stability of cannabinoid and Vitamin E components of Beverage 1 (AB White) stored at 8° C. and 21-25° C., LCMSMS over 570 days
Type: physicochemical
REPORTED CONDITIONS: beverage stored at 21-25° C., day 10
Recorded measurements of Stability in AB White, 21-25° C. (content by LCMSMS), one per entry
State the answer as a number, implicitly in µg/mL.

Solved entries (count: 8):
{"MOLECULE": "CCCCCc1cc2c(c(O)c1C(=O)O)[C@@H]1C=C(C)CC[C@H]1C(C)(C)O2 [D9 THCA, delta-9-tetrahydrocannabinolic acid]", "RESULT VALUE": 0.935}
{"MOLECULE": "CCCCCc1cc(O)c2c(c1)OC(C)(C)[C@@H]1CCC(C)=C[C@@H]21 [D9 THC, delta-9-tetrahydrocannabinol, reference compound]", "RESULT VALUE": 11.7}
{"MOLECULE": "CCCCCc1cc(O)c2c(c1)OC(C)(CCC=C(C)C)C=C2 (stereo not drawn)", "RESULT VALUE": 0.312}
{"MOLECULE": "CCCCCc1cc(O)c2c(c1)OC(C)(C)c1ccc(C)cc1-2", "RESULT VALUE": 2.77}
{"MOLECULE": "C=C(C)[C@@H]1CCC(C)=C[C@H]1c1c(O)cc(CCCCC)c(C(=O)O)c1O", "RESULT VALUE": 1.73}
{"MOLECULE": "CCCCCc1cc(O)c2c(c1)OC1(C)CCC3C1C2C3(C)C (stereo not drawn)", "RESULT VALUE": 0.546}
{"MOLECULE": "CCCc1cc(O)c2c(c1)OC(C)(C)[C@@H]1CCC(C)=C[C@@H]21 [THCV, delta-9-tetrahydrocannabivarin]", "RESULT VALUE": 3.55}
{"MOLECULE": "C=C(C)[C@@H]1CCC(C)=C[C@H]1c1c(O)cc(CCC)cc1O", "RESULT VALUE": 0.147}

Enquiry: For CCCCCc1cc(O)c(C/C=C(\C)CCC=C(C)C)c(O)c1 , write its Stability in AB White, 21-25° C. (content by LCMSMS).
Return: 4.68

----------
EXPERIMENTAL DETAILS: Stability of cannabinoid and Vitamin E components of Beverage 1 (AB White) stored at 8° C. and 21-25° C., LCMSMS over 570 days
Assay type: physicochemical
REPORTED CONDITIONS: beverage stored at 21-25° C., day 570
ATTRIBUTE MEASURED: Stability in AB White, 21-25° C. (content by LCMSMS)
Your answer should be a number followed by the unit of measure.

Solved entries (count: 3):
{"COMPOUND": "CCCCCc1cc(O)c2c(c1)OC(C)(CCC=C(C)C)C=C2 (centres unmarked)", "RESULT VALUE": "0.295 µg/mL"}
{"COMPOUND": "CCCCCc1cc(O)c2c(c1)OC(C)(C)c1ccc(C)cc1-2", "RESULT VALUE": "2.56 µg/mL"}
{"COMPOUND": "CCCCCc1cc(O)c(C/C=C(\\C)CCC=C(C)C)c(O)c1", "RESULT VALUE": "4.47 µg/mL"}

Enquiry: For CCCCCc1cc2c(c(O)c1C(=O)O)[C@@H]1C=C(C)CC[C@H]1C(C)(C)O2 [D9 THCA, delta-9-tetrahydrocannabinolic acid] , write its Stability in AB White, 21-25° C. (content by LCMSMS).
Return: 0.877 µg/mL

Enquiry: For CCCCCc1cc(O)c2c(c1)OC(C)(C)[C@@H]1CCC(C)=C[C@@H]21 [D9 THC, delta-9-tetrahydrocannabinol, reference compound] , write its Stability in AB White, 21-25° C. (content by LCMSMS).
Return: 11.2 µg/mL

----------
Format: physicochemical
REPORTED CONDITIONS: stored at room temperature (21-25° C.), day 8
Binning scheme for Stability in Powder Concentrate (content by LCMSMS): LOW = under 0.4 mg/g powder, MID = from 0.4 mg/g powder up to 2 mg/g powder, HIGH = 2 mg/g powder and over

{"MOLECULE": "CCCCCc1cc(O)c2c(c1)OC(C)(C)[C@@H]1CCC(C)=C[C@@H]21 [D9 THC, delta-9-tetrahydrocannabinol, reference compound]", "ASSIGNED CATEGORY": "HIGH"}

Enquiry: // return the class label for Cc1c(C)c2c(c(C)c1OC(=O)CCC(=O)O)CC[C@@](C)(CCC[C@H](C)CCC[C@H](C)CCCC(C)C)O2 [α-Tocopheryl succinate]
Return: MID

Enquiry: // return the class label for CCCCCc1cc(O)c(C/C=C(\C)CCC=C(C)C)c(O)c1
Return: MID

Enquiry: // return the class label for CCCCCc1cc(O)c2c(c1)OC1(C)CCC3C1C2C3(C)C (stereo not shown)
Return: LOW

Enquiry: // return the class label for Cc1c(C)c2c(c(C)c1O)CC[C@@](C)(CCC[C@H](C)CCC[C@H](C)CCCC(C)C)O2
Return: HIGH

Enquiry: // return the class label for CCCCCc1cc2c(c(O)c1C(=O)O)[C@@H]1C=C(C)CC[C@H]1C(C)(C)O2 [D9 THCA, delta-9-tetrahydrocannabinolic acid]
Return: LOW

Enquiry: // return the class label for C=C(C)[C@@H]1CCC(C)=C[C@H]1c1c(O)cc(CCCCC)cc1O [CBD, cannabidiol, reference compound]
Return: HIGH

Enquiry: // return the class label for CC(=O)Oc1c(C)c(C)c2c(c1C)CCC(C)(CCC[C@H](C)CCC[C@H](C)CCCC(C)C)O2 (stereo partly drawn) [α-Tocopheryl acetate]
Return: HIGH

Enquiry: // return the class label for CCCCCc1cc(O)c2c(c1)OC(C)(C)c1ccc(C)cc1-2
Return: MID

Enquiry: // return the class label for CCCCCc1cc(O)c2c(c1)OC(C)(CCC=C(C)C)C=C2 (stereo not shown)
Return: LOW

Enquiry: // return the class label for C=C(C)[C@@H]1CCC(C)=C[C@H]1c1c(O)cc(CCC)cc1O
Return: LOW

Enquiry: // return the class label for CCCc1cc(O)c2c(c1)OC(C)(C)[C@@H]1CCC(C)=C[C@@H]21 [THCV, delta-9-tetrahydrocannabivarin]
Return: MID

Enquiry: // return the class label for C=C(C)[C@@H]1CCC(C)=C[C@H]1c1c(O)cc(CCCCC)c(C(=O)O)c1O
Return: MID

----------
EXPERIMENTAL DETAILS: Stability of cannabinoid and Vitamin E components of Beverage 2 (AB Red) stored at 8° C. and 21-25° C., LCMSMS over 570 days
REPORTED CONDITIONS: 21-25° C., 270 days
Classification field: 1 (yes) = Stability of Cannabinoids in AB Red at or over 2 µg/mL; 0 (no) = Stability of Cannabinoids in AB Red under 2 µg/mL.

Solved cases (8 shown):
{"MOLECULE": "C=C(C)[C@@H]1CCC(C)=C[C@H]1c1c(O)cc(CCCCC)c(C(=O)O)c1O", "ASSIGNED CATEGORY": "0 (no)"}
{"MOLECULE": "CCCCCc1cc(O)c2c(c1)OC(C)(C)[C@@H]1CCC(C)=C[C@@H]21 [D9 THC, delta-9-tetrahydrocannabinol, reference compound]", "ASSIGNED CATEGORY": "1 (yes)"}
{"MOLECULE": "CCCCCc1cc(O)c2c(c1)OC1(C)CCC3C1C2C3(C)C (stereo not drawn)", "ASSIGNED CATEGORY": "0 (no)"}
{"MOLECULE": "CCCc1cc(O)c2c(c1)OC(C)(C)[C@@H]1CCC(C)=C[C@@H]21 [THCV, delta-9-tetrahydrocannabivarin]", "ASSIGNED CATEGORY": "1 (yes)"}
{"MOLECULE": "CCCCCc1cc2c(c(O)c1C(=O)O)[C@@H]1C=C(C)CC[C@H]1C(C)(C)O2 [D9 THCA, delta-9-tetrahydrocannabinolic acid]", "ASSIGNED CATEGORY": "0 (no)"}
{"MOLECULE": "CCCCCc1cc(O)c2c(c1)OC(C)(C)c1ccc(C)cc1-2", "ASSIGNED CATEGORY": "1 (yes)"}
{"MOLECULE": "CCCCCc1cc(O)c2c(c1)OC(C)(CCC=C(C)C)C=C2 (stereo not drawn)", "ASSIGNED CATEGORY": "0 (no)"}
{"MOLECULE": "C=C(C)[C@@H]1CCC(C)=C[C@H]1c1c(O)cc(CCC)cc1O", "ASSIGNED CATEGORY": "0 (no)"}

Continue with the molecule presented below.
Enquiry: Please tell me: is the molecule CCCCCc1cc(O)c(C/C=C(\C)CCC=C(C)C)c(O)c1 at or over 2 µg/mL in terms of Stability of Cannabinoids in AB Red?
Return: 1 (yes)
